Each entry below lists one item and its recorded composite z-score value.
tested on: Neuregulin-1 EGF-like domain; assay: binders of neuregulin-1 EGF-like domain, primary screen, biochemical, small-molecule microarray, 635 nm fluorescence (AID 1081); conditions: small-molecule microarray binding, higher = more signal;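 also: binding of the protein to compounds printed on small-molecule microarray slides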
Reply with the value as a number alone.

// solved cases for composite z-score follow
[[record]]
compound = "O=C1C2C=CC(C(O)c3ccco3)N(Nc3ccccc3)C2C(=O)N1c1ccccc1 (centres undefined)"
quantity_measured = "composite z-score"
result = 1.08

[[record]]
compound = "COc1cccc(/C=C(\\C#N)C(=O)Nc2c(C)n(C)n(-c3ccccc3)c2=O)c1"
quantity_measured = "composite z-score"
result = 1.1

[[record]]
compound = "O=C1[C@@H]2[C@@H](CC(COc3ccccc3)=C3[C@@H](CCc4ccccc4)OB(O)C[C@@H]32)C(=O)N1Cc1ccccc1"
quantity_measured = "composite z-score"
result = -0.113


input: # composite z-score lookup, item Cc1ccc(F)cc1S(=O)(=O)N[C@@H]1CCN(Cc2cccc3[nH]ccc23)C1
output: 0.379

input: Need composite z-score of CCOC(=O)C1=CCC(c2ccco2)N(S(=O)(=O)c2ccc(C)cc2)C1 (centres undefined) , thanks.
output: 0.791

input: Recorded composite z-score of CCCCC(=C=CC[C@H](O)c1ccc(OCCO)cc1)C[C@H](O)COCc1ccccc1 , please.
output: 0.879

input: Would you kindly share the measured composite z-score for COc1ccc(CCNC(=O)[C@@]2(Cc3ccccc3I)c3ccccc3C(=O)N(Cc3ccccc3Cl)[C@H]2c2ccc(CO)cc2)cc1 ?
output: 1.22

input: Quick check: composite z-score of C[C@@]12COC[C@]13C=C(Br)[C@H](C2)[C@@]1(CO1)C3=O ?
output: -1.12

input: If you can, please state the reported composite z-score value of O=C1OCCC=C[C@H]2OC34C=CCN(c5ccc(Cl)cc5)C(=O)[C@H]3N(CCCCCCO)C(=O)[C@@H]4C12 (some centres undefined) .
output: 1.24
